Entries below carry reported GI50 on MCF-7 cells.
Report the value in µM with no unit label.

Some solved entries appear below for comparison.
# MOLECULE, RECORDED_ENDPOINT, UNITS_LABEL, MEASURED_RESULT
data = [
    ("COc1ccc(C(C)=C(c2ccc(Cl)cc2)c2ccc(OCCN3CCCC3)cc2)cc1 [Compound 11]", "GI50", "µM", 0.89),
    ("CC/C(=C(\\c1ccccc1)c1ccc(OCCN(C)C)cc1)c1ccccc1 [TAM, Tamoxifen, reference compound]", "GI50", "µM", 1.58),
    ("CCN(CC)CCOc1ccc(C(=C(C)c2ccc(F)c(OC)c2)c2ccc(Cl)cc2)cc1 [Compound 28]", "GI50", "µM", 2.17),
    ("COc1ccc(C(C)=C(c2ccc(Cl)cc2)c2ccc(OCCN3CCCCCC3)cc2)cc1F [Compound 19]", "GI50", "µM", 3.59),
    ("COc1ccc(C(C)=C(c2ccc(Cl)cc2)c2ccc(OCCN3CCCCC3)cc2)cc1F [Compound 17]", "GI50", "µM", 3.34),
]

Reading of GI50 for COc1ccc(C(C)=C(c2ccc(Cl)cc2)c2ccc(OCCN3CCCC3)cc2)cc1F [Compound 16] with MCF-7 cells: 2.41

Reading of GI50 for COc1ccc(C(C)=C(c2ccc(Cl)cc2)c2ccc(OCCN3CCCCC3)cc2)cc1 [Compound 12] with MCF-7 cells: 0.6

Hello, the source for this data is paper PMC8621172, in case you need it.
